test system: IL-15 (JAK1/JAK3) induced pSTAT5; test: Phospho-STAT inhibition in lymphocytes, IL-15, human; format: cell-based; conditions: Leukocyte, read-out: IL-15 (JAK1/JAK3) induced pSTAT5 IC50, Human WT
parameter: IC50 (nM)
Please respond with the number in nM and leave the unit unwritten.

Request the reported IC50 associated with C[C@@H]1[C@@H]2CN(c3nc(Nc4cnn(C)c4)ncc3F)C[C@]12NC(=O)[C@@H]1CC1(F)F
135

----------
// values below are reported IC50
molecular target: human WT TYK2 (Homo sapiens); construct: His-tagged recombinant human TYK2, mouse TYK2, and human TYK2 I960V mutant kinase domains were expressed in insect cell/baculovirus systems; His; assay: JAK Caliper enzyme end-point IC50 assay, human WT TYK2; conditions: ATP 1 mM; geometric mean ± SD

These recorded examples may help you get a feel for the data.
compound	IC50
Cn1cc(Nc2ncc(Cl)c(N3C[C@H]4CC[C@@H](C3)N4C(=O)[C@@H]3CC3(F)F)n2)cn1	8 nM
C[C@@H]1C2CN(c3nc(Nc4cn[nH]c4)ncc3F)C[C@@]21NC(=O)[C@H]1CC1(F)F (stereo partly shown)	13 nM
Cn1cc(Nc2ncc(F)c(N3C[C@H]4C[C@@]4(NC(=O)[C@@H]4CC4(F)F)C3)n2)cn1	38 nM

Request the reported IC50 associated with CCNC(=O)c1ccc(Nc2nccc(N3C[C@H]4C[C@@H](C3)N4C(=O)C(F)(F)F)n2)cc1
135 nM

----------
// values below are reported pIC50
molecular target: mouse WT TYK2 (Mus musculus, UniProt Q9R117); construct: His-tagged recombinant human TYK2, mouse TYK2, and human TYK2 I960V mutant kinase domains were expressed in insect cell/baculovirus systems; His; made in house; host or cells: insect cell/baculovirus; assay: JAK Caliper enzyme end-point IC50 assay, mouse WT TYK2; format: biochemical; settings: ATP 1 mM; geometric mean ± SD
Sequence (Q9R117 894-1166 limits assumed): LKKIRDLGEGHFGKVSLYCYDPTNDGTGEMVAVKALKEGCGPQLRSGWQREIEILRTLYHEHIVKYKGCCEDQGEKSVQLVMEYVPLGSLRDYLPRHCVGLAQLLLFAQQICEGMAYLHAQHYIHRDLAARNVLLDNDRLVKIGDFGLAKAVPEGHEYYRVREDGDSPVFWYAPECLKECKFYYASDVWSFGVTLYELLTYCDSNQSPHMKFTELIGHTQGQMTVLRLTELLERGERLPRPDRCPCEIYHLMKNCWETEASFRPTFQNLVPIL
Lab note — pIC50 values are minus log10 of concentrations in M.

compound	parameter	value-reported
Cn1cc(Nc2nccc(N3C[C@H]4CC[C@@H](C3)N4CCC#N)n2)cn1	pIC50	5.88

Request the reported pIC50 associated with CCNC(=O)c1ccc(Nc2ncc(C)c(N3C[C@H]4C[C@@H]3CN4S(C)(=O)=O)n2)cc1
5.28

Request the reported pIC50 associated with Cc1cnc(Nc2cnn(CCO)c2)nc1N1CC2C[C@@]2(NC(=O)C2CC2)C1 (some centres unmarked)
6.11

Request the reported pIC50 associated with CCNC(=O)c1ncc(Nc2ncc(Cl)c(N3C[C@H]4C[C@@]4(NC(=O)C4CC4)C3)n2)cc1C
6.08

Request the reported pIC50 associated with CCNC(=O)c1ccc(Nc2nccc(N3C[C@H]4C[C@@H](C3)N4C(=O)C(F)(F)F)n2)cc1
5.45

----------
target: human TYK2 I960V mutant (Homo sapiens, UniProt P29597, I960V); test: JAK Caliper enzyme end-point IC50 assay, human TYK2 I960V mutant; conditions: read-out: Human TYK2 I960V IC50; ATP 1 mM; geometric mean ± SD
parameter: log10(IC50) (log10 of the value in nM)
Please interpret these as log10 of IC50 where IC50 is in nM.

These recorded examples may help you get a feel for the data.
molecule	log10(IC50)
CNC(=O)c1ncc(Nc2nccc(N3C[C@H]4C[C@@]4(NC(=O)C4CC4)C3)n2)cc1C	3.87
CCNC(=O)c1ccc(Nc2ncc(C)c(N3C[C@H]4C[C@@H]3CN4S(C)(=O)=O)n2)cc1	3.56
Cc1cnc(Nc2cnn(C)c2)nc1N1C[C@H]2CC[C@@H](C1)N2C(=O)[C@@H]1CC1(F)F	1.74
Cn1cc(Nc2nccc(N3C[C@H]4CC[C@@H](C3)N4CCC#N)n2)cn1	3.01
Cc1cnc(Nc2cnn(C)c2)nc1N1C[C@H]2[C@@H](C)[C@@]2(NC(=O)C2CC2)C1	2.68

Which measured log10(IC50) belongs to C[C@@H]1C2CN(c3nc(Nc4cn[nH]c4)ncc3F)C[C@@]21NC(=O)[C@H]1CC1(F)F (some centres unmarked) , tested on human TYK2 I960V mutant (Homo sapiens, UniProt P29597, I960V)?
2.59

Which measured log10(IC50) belongs to CCNC(=O)c1ccc(Nc2nccc(N3C[C@H]4C[C@@H](C3)N4C(=O)C(F)(F)F)n2)cc1 , tested on human TYK2 I960V mutant (Homo sapiens, UniProt P29597, I960V)?
3.41

Which measured log10(IC50) belongs to Cn1cc(Nc2ncc(F)c(N3C[C@H]4C[C@@]4(NC(=O)[C@@H]4CC4(F)F)C3)n2)cn1 , tested on human TYK2 I960V mutant (Homo sapiens, UniProt P29597, I960V)?
3.19

----------
// values below are reported IC50
Target: human WT TYK2 (Homo sapiens, UniProt P29597)
Construct: His-tagged recombinant human TYK2, mouse TYK2, and human TYK2 I960V mutant kinase domains were expressed in insect cell/baculovirus systems; His
Sequence (P29597 897-1176 limits assumed): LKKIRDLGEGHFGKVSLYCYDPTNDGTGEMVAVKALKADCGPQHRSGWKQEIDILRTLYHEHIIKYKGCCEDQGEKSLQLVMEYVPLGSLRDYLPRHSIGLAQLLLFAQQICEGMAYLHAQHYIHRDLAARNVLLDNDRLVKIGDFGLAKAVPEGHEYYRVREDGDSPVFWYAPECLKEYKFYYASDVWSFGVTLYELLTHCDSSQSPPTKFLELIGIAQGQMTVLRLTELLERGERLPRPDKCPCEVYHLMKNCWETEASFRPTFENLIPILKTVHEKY
Assay: JAK Caliper enzyme end-point IC50 assay, human WT TYK2
Conditions: ATP 1 mM; geometric mean ± SD
Express your answer as a number followed by its unit.

compound	IC50
CCNC(=O)c1ccc(Nc2ncc(C)c(N3C[C@H]4C[C@@H]3CN4S(C)(=O)=O)n2)cc1 [Compound 15]	371 nM
Cc1cnc(Nc2cnn(C)c2)nc1N1C[C@H]2CC[C@@H](C1)N2C(=O)[C@@H]1CC1(F)F [Compound 28]	15 nM
Cn1cc(Nc2nccc(N3C[C@H]4CC[C@@H](C3)N4CCC#N)n2)cn1 [Compound 22]	73 nM
CCNC(=O)c1ncc(Nc2ncc(Cl)c(N3C[C@H]4C[C@@]4(NC(=O)C4CC4)C3)n2)cc1C [Compound 18]	35 nM

Which measured IC50 belongs to CNC(=O)c1ncc(Nc2nccc(N3C[C@H]4C[C@@]4(NC(=O)C4CC4)C3)n2)cc1C [Compound 19] , tested on human WT TYK2 (Homo sapiens, UniProt P29597)?
208 nM

Which measured IC50 belongs to Cc1cnc(Nc2cnn(CCO)c2)nc1N1CC2C[C@@]2(NC(=O)C2CC2)C1 (some centres unmarked) [Compound 20] , tested on human WT TYK2 (Homo sapiens, UniProt P29597)?
67 nM

Which measured IC50 belongs to CCNC(=O)c1ncc(Nc2ncc(F)c(N3C[C@H]4CC[C@@H](C3)N4CCC#N)n2)cc1C [Compound 17] , tested on human WT TYK2 (Homo sapiens, UniProt P29597)?
46 nM

Which measured IC50 belongs to Cc1cnc(Nc2cnn(C)c2)nc1N1C[C@H]2[C@@H](C)[C@@]2(NC(=O)C2CC2)C1 [Compound 21] , tested on human WT TYK2 (Homo sapiens, UniProt P29597)?
50 nM

----------
target: mouse WT TYK2 (Mus musculus); construct: His-tagged recombinant human TYK2, mouse TYK2, and human TYK2 I960V mutant kinase domains were expressed in insect cell/baculovirus systems; His; made in house; host or cells: insect cell/baculovirus; experiment: JAK Caliper enzyme end-point IC50 assay, mouse WT TYK2; format: biochemical; conditions: ATP 1 mM; geometric mean ± SD
// values below are reported pIC50
Lab note — pIC50 values are minus log10 of concentrations in M.

molecule	value-reported
CCNC(=O)c1ncc(Nc2ncc(F)c(N3C[C@H]4CC[C@@H](C3)N4CCC#N)n2)cc1C [Compound 17]	5.82
Cn1cc(Nc2ncc(F)c(N3C[C@H]4C[C@@]4(NC(=O)[C@@H]4CC4(F)F)C3)n2)cn1 [Compound 26]	5.67
CNC(=O)c1ncc(Nc2nccc(N3C[C@H]4C[C@@]4(NC(=O)C4CC4)C3)n2)cc1C [Compound 19]	5.09
Cc1cnc(Nc2cnn(C)c2)nc1N1C[C@H]2CC[C@@H](C1)N2C(=O)[C@@H]1CC1(F)F [Compound 28]	6.74
Cn1cc(Nc2ncc(Cl)c(N3C[C@H]4CC[C@@H](C3)N4C(=O)[C@@H]3CC3(F)F)n2)cn1 [Compound 29]	7.00

Request the reported pIC50 associated with Cc1cnc(Nc2cnn(C)c2)nc1N1C[C@H]2[C@@H](C)[C@@]2(NC(=O)C2CC2)C1 [Compound 21]
5.94

Request the reported pIC50 associated with C[C@@H]1C2CN(c3nc(Nc4cn[nH]c4)ncc3F)C[C@@]21NC(=O)[C@H]1CC1(F)F (stereo partly shown) [Compound 23]
6.33
